Each recorded value in this set is attributed to PubChem BioAssay AID590.

- METHOD SUMMARY: qHTS Assay for Spectroscopic Profiling in A350 Spectral Region
- CONDITION DESCRIPTION: Compound autofluorescence, 340/450 nm, Alexa 350 dye-equivalents; stronger effect = higher value
- Description: NIH Molecular Libraries Screening Centers Network [MLSCN] NIH Chemical Genomics Center [NCGC] Occasionally, the artifactual effect may originate from the compounds own spectral or other biophysical properties which generally tend to track its assay concentration. […] A standard curve of Alexa 350 (A 350) present on each plate as six-point concentration series, was used to compute a normalized fluorescence response, termed dye-equivalent concentration, for each compound at each concentration. […]
Among all 59,000 compounds or so, about 6,500 (11%) were called active. Roughly 15% stayed inconclusive and do not appear here. The sample holds actives, similar compounds and a random draw of the others, so the mix is not that of the screen.
MEASURED PROPERTY: max dye-equivalent concentration

Some entries whose results are on file:
{"MOLECULE": "CN(Cc1ccccc1)Cc1ccccc1F", "max dye-equivalent concentration": "inactive"}
{"MOLECULE": "Cc1cccc(NC(=O)CSc2nc3c(c(=O)[nH]2)CCC3)c1C", "max dye-equivalent concentration": "inactive"}
{"MOLECULE": "CC(C)OC(=O)c1cc(NC(=O)C2C3CCC(O3)C2C(=O)O)cc(C(=O)OC(C)C)c1 (stereo not given)", "max dye-equivalent concentration": "13 nM (active)"}
{"MOLECULE": "N#CNC1=NCN(CCc2ccccc2)CN1", "max dye-equivalent concentration": "inactive"}
{"MOLECULE": "COc1ccc(CCn2nnnc2C(c2ccccc2)N2CCN(C)CC2)cc1OC (stereo not given)", "max dye-equivalent concentration": "inactive"}
{"MOLECULE": "c1ccc(-c2nnc3n2NC(c2ccc4c(c2)OCO4)S3)cc1 (stereo not given)", "max dye-equivalent concentration": "inactive"}
{"MOLECULE": "COc1cccc(NC(=O)C2CCCN2C(=O)OCc2ccccc2)c1 (stereo not given)", "max dye-equivalent concentration": "inactive"}
{"MOLECULE": "CC(C)C(C(=O)NC1CCCCC1)N(CC1CCCO1)C(=O)CNS(=O)(=O)c1ccc(F)cc1 (stereo not given)", "max dye-equivalent concentration": "inactive"}
{"MOLECULE": "CC(C)C(NC(=O)OCc1ccccc1)C(=O)OCC(=O)N1C(C)CCCC1C (stereo not given)", "max dye-equivalent concentration": "48 nM (active)"}

Now let's try a different one.
// field: max dye-equivalent concentration; key: `COc1ccc(CCn2c(-c3ccco3)nc3nc4ccccc4nc32)cc1OC` ; value = 11 nM (active)
